From: patent US6875761B2

pKi: −log10 of the molar value. Where a name gives a salt, the structure may show the parent alone.
serotonin 2 receptor (Rattus norvegicus, UniProt P14842) pKi data
Sequence (P14842 whole entry): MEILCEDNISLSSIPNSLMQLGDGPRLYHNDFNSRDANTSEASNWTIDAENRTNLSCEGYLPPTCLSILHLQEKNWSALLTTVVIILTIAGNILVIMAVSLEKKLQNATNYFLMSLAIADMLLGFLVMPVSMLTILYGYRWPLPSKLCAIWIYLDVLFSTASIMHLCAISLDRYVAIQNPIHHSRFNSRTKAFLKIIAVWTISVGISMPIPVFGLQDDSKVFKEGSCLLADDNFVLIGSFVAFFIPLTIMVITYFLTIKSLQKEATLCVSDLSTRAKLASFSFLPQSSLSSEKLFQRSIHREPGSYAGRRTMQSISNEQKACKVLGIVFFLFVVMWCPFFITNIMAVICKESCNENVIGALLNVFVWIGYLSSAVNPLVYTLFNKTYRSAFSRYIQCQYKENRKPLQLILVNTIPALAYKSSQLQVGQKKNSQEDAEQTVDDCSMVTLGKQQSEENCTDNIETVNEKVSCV
TEST READOUT: pKi

CCN1CCN(c2nc(-c3ccc(C(=O)CC(C)C)cc3)cc3ccsc23)CC1 [Example 272, dihydrochloride] : 7.65
CCN1CCN(c2nc(-c3ccc(S(=O)(=O)CCCO)cc3)cc3ccccc23)CC1 [Example 352, dihydrochloride] : 7.26
CCN1CCN(c2nc(/C=C/c3ccc(S(C)(=O)=O)cc3)cc3ccccc23)CC1 [Example 201, Hydrochloride] : 8.53
CCN1CCN(c2nc(/C=C/c3ccccc3OCCO)cc3ccccc23)CC1 [Example 194, Oxalate] : 7.47

###

UniProtKB P14842 log10 of Ki data
Counter-ions that a name gives are not always drawn.
TEST READOUT: log10 of Ki (log10 of the value in µM)

CCN1CCN(c2nc(-c3cnc(CCCOC)s3)cc3ccccc23)CC1 [Example 172, oxalate] : -1.44
CCN1CCN(c2nc(-c3ccc(OC)cc3)nc3ccccc23)CC1 [Example 427, Dihydrochloride] : -0.52
CCC(O)c1ncc(-c2cc3ccccc3c(N3CCN(CC)CC3)n2)s1 (stereo not shown) [Example 170, dihydrochloride] : -1.60
CCN1CCN(c2nc(-c3ccc(CCCF)cn3)cc3ccccc23)CC1 : -1.63
CCN1CCN(c2nc(-c3ccc(N4CCN(C(C)=O)CC4)nc3)cc3ccccc23)CC1 [Example 99, Trihydrochloride] : -2.21
CCN1CCN(c2nc(-c3ccc(C4CCCO4)cc3)cc3ccccc23)CC1 (stereo not shown) [Example 396, Dihydrochloride] : -2.59
CCN1CCN(c2nc(-c3ccc4c(c3)OCO4)cc3ccccc23)CC1 [Example 46, Hydrochloride] : -1.90
CCC(F)c1ccc(-c2cc3ccccc3c(N3CCN(CC)CC3)n2)cc1 (stereo not shown) [Example 5, Hydrochloride] : -2.66
CCN1CCN(c2nc(-c3ccc(C(C)(C)CCO)cc3)cc3ccsc23)CC1 [Example 443, dihydrochloride] : -2.73
CCN1CCN(c2nc(/C=C/c3cncc(N4CCOCC4)n3)cc3ccccc23)CC1 [Example 216, oxalate] : -1.81
CCN1CCN(c2nc(-c3ccc(O[C@@H](C)CO)cc3)cc3ccoc23)CC1 [Example 303, dihydrochloride] : -1.35
CCN1CCN(c2nc(C#CCc3ccccc3)cc3ccccc23)CC1 [Example 181, Oxalate] : -2.17
CCN1CCN(c2nc(-c3cc(OC)c(OC)cc3OC)cc3ccccc23)CC1.Cl [Example 16, dihydrochloride] : -1.36
CCN1CCN(c2nc(-c3ccc(OCCCO)cc3)cc3ccoc23)CC1 [Example 317, dihydrochloride] : -0.98
CCN1CCN(c2nc(-c3ccc(C#CC(C)(C)O)cc3)cc3sccc23)CC1 [Example 466, oxalate] : -3.00
CCN1CCN(c2nc(-c3cnc(N4CCOCC4)s3)cc3ccccc23)CC1 [Example 173, dihydrochloride] : -2.32

###

serotonin 2 receptor (Rattus norvegicus, UniProt P14842) pKi data
pKi: −log10 of the molar value. Where a name gives a salt, the structure may show the parent alone.
TEST READOUT: pKi

CCN1CCN(c2nc(-c3ccc(CCC(C)(C)O)cc3)cc3sccc23)CC1 [Example 291, dihydrochloride] : 8.84
CCN1CCN(c2nc(-c3ccc(N4CCOCC4)nc3)cc3ccccc23)CC1 [Example 147, trihydrochloride] : 8.77
CCN1CCN(c2nc(-c3ccc(OCCCc4cccnc4)cc3)cc3ccccc23)CC1 [Example 157, hydrochloride] : 8.31
CCN1CCN(c2nc(-c3ccc(N4CCC(O)CC4)nc3)cc3ccsc23)CC1 [Example 265, Hydrochloride] : 6.94
